- experimental target: CYP1A2 (Homo sapiens, UniProt P05177)
- Construct: premixing appropriate volumes of buffer, microsomes and substrate; from tissue
- Sequence (P05177 whole entry): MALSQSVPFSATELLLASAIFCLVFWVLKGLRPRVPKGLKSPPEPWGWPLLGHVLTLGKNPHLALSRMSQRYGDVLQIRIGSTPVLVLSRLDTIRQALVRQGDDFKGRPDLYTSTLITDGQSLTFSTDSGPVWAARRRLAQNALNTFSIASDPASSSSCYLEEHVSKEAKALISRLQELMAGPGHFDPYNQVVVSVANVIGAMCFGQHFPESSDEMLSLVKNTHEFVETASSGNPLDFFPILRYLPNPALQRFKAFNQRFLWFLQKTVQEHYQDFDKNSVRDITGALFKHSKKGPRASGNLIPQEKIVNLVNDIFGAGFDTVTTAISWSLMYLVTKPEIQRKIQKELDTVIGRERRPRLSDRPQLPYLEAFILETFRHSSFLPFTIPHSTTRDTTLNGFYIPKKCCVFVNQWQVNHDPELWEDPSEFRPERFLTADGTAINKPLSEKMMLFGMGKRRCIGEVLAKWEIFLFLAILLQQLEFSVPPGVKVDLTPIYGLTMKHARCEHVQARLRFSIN
- assay text: CYP inhibition, microsomes
- Type: in vitro ADME
- conditions: metabolite acetaminophen, numeric bound
pIC50: −log10 of the molar value.
reported property: pIC50

> print(dat)
                         compound.structure  reported.property  result
1  O=c1c2c([nH]c3cc(F)c(F)cc13)CCN(Cc1ccccc1)C2              pIC50  < 4.90

====

- assay text: Microsomal stability (intrinsic clearance study)
- Type: in vitro ADME
- conditions: mouse liver microsomes, 0.5 mg/mL protein; read-out: Microsomal stability (T½ min) Mouse
reported property: half-life at 0.5 uM

> print(dat)
                                   molecule        result
1  CN1c2ccccc2C(O)C2CN(Cc3ccccc3)CCC21 (stereo not drawn) [Ia-1]      < 10 min
2  Cn1c2c(c(=O)c3ccccc31)CN(Cc1ccccc1)CC2 [Compound I-1]  10 to 30 min
3  O=c1c2c([nH]c3cc(F)c(F)cc13)CCN(Cc1ccccc1)C2 [Ib-22]  10 to 30 min
